Can you tell me protein stability index for the items I'm about to list?
# measurement.protocol: protein stability index of a GFP-peptide fusion (GPS, HEK-293T) (PSI 1-6); higher = more stable;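 also: 24-mer peptide tiles fused after GFP, lentivirally expressed, FACS-sorted into six equal bins by GFP/DsRed ratio, decoded by Illumina sequencing, PSI is the read-weighted mean bin number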
# assay.conditions: treatment: MLN4924 1 uM, 8 h; c terminus: a fixed tail appended

[[record]]
residue_sequence = "YLGSLQYRVWKKMLASVESVPFSF [TRIM35]"
assay_result = 2.33


Hi! Can you tell me protein stability index for each of these sequences?
1. EAKNYLLLPQERPLMQGPRTRPRK [KLHL20]
2. QQGEYSEAIPILRAALKLEPSNKT [FKBP8]
3. PFFFTGAFPFNMQELVLKVRIQNP [ANKRD40]
4. EGSRKSSRVKGSAPEIDPSSDGSN [KMT2E]

result:
1: 4.17; 2: 4.14; 3: 1.99; 4: 5.21

Hi! Can you tell me protein stability index for each of these sequences?
1. SLFSPVTEDSPLGTVVALLNVHDL [PCDHGA10]
2. QGTELWVAERGTTQGCHPAWEPRS [ZNF8]
3. LLLLYFMQVIAIVLYLMMPIVNIS [PHTF1]
4. GSPSRPLSRRQLCPLTPGPGKALG [C2CD2L]
5. HLQHKLICTRKPEEIRGGGLLKYC [TENT5D]

result:
2.32
3.1
3.06
4.11
2.88

Hi! Can you tell me protein stability index for each of these sequences?
1. MTTHPLTNNNIKQRLIKKVQEAVL [GOLPH3]
2. KYDPKTQEWSFLPSITRKRRYVAS [KLHL12]

result:
1: 2.65; 2: 2.93

Hi! Can you tell me protein stability index for each of these sequences?
1. DYCKGGYHPVKIGDLFNGRYHVIR [SRPK2]
2. CSRPSGSSSSSGVLMVGPNFRVGK [CSNK1G1]
3. LMADKVLRWERAWFPPAIMGVVSL [ARL6IP1]
4. DLMETTQYMNEGELRVLADTYDSV [HDAC6]
5. MQNGAGASRTSTIFLNGNRERPLN [TNXB]

result:
2.23
3.74
2.45
3.58
4.06

* * *

Can you tell me protein stability index for the items I'm about to list?
# measurement.protocol: protein stability index of a GFP-peptide fusion (GPS, HEK-293T) (PSI 1-6); higher = more stable
# assay.conditions: treatment: DMSO; c terminus: a fixed tail appended
One number for each entry.

Hi! Can you tell me protein stability index for each of these sequences?
1. RRRGSDPASGEVEASQLRRLNIKK [TMEM40]
2. AIQDQLPRLQQLLKTLEEGLEGLE [FANCE]
3. EVVNRKFGNRIKVLRSRIRFIHLV [POMT2]
4. MLPGVLAGVSAEESWAGPQPLETL [SCNN1D]
5. EMKLQKNFLTQRENTIAGANHTHT [C10orf62]
6. DEKDRIITAFYNEARARARANRGI [DNAJC4]
7. WAEIAKMLPGRTDNAVKNHWNSTI [MYBL2]
8. RYHVIRKLGWGHFSTVWLCWDMQG [SRPK2]

result:
1: 5.26; 2: 3.61; 3: 2.56; 4: 3.38; 5: 3.78; 6: 4; 7: 2.18; 8: 2.83

Hi! Can you tell me protein stability index for each of these sequences?
1. NQHCLDTAFNFFKMAVSRHLTRGR [BRF1]
2. VPRPGTPQSPPSCRAPPPEARGIR [FCHO1]
3. QETAEFFLSLDIPIGELYGLSESS [ACSBG2]
4. FWRDWEDYAHGFGNISGEFWLGNE [TNXB]
5. EVFYYSCEYNFVSPSKSFWTRITC [CFHR2]
6. LPPEKGREVAKELGIPYYETSVVA [RHOBTB2]
7. PMMEHEMGGHHPGADYPVDGLPDL [CTNNB1]

result:
1: 2.19; 2: 4.85; 3: 2.61; 4: 2.78; 5: 3.39; 6: 3.55; 7: 5.2

Hi! Can you tell me protein stability index for each of these sequences?
1. LDSEKRTPLHVAAFLGDAEIIELL [ANKRD44]
2. LWENTRFTDCSFFVRGQEFKAHKS [SPOPL]
3. RSNVDFLETPELTSTMLVPASWWI [NECAB1]
4. IVPNSNGVITTTPTPPGQYFYPRG [JUNB]
5. AWIWHDCHRHYHSMEVFTHYDLLN [LOXL2]
6. SKAKKLVCNINKGCGYGCQLHHVV [FUT8]

result:
[2.95, 2.74, 2.21, 3.16, 2.41, 2.71]

* * *

# measurement.protocol: protein stability index of a GFP-peptide fusion (GPS, HEK-293T) (PSI 1-6); higher = more stable
# assay.conditions: treatment: MLN4924 1 uM, 8 h; c terminus: a fixed tail appended
quantity.measured: protein stability index
One number for each entry.

Some entries whose results are on file:
[[record]]
residue_sequence = "DLKPENIMLLDKNVPNPRIKLIDF [DAPK3]"
assay_result = 2.93

[[record]]
residue_sequence = "MSQALKATFSGFKKEQRRLGIPKN [ETS2]"
assay_result = 3.08


Hi! Can you tell me protein stability index for each of these sequences?
1. YVRMVFLALYVLFLADEEFDVVVC [ALG2]
2. IKNDKYGPWLEWEIMLQYCFPRLD [PRIM1]

result:
1. 2.93
2. 3

* * *

# measurement.protocol: protein stability index of a GFP-peptide fusion (GPS, HEK-293T) (PSI 1-6); higher = more stable
# assay.conditions: treatment: DMSO; c terminus: a fixed tail appended
So basically: protein stability index at 3 or higher? That is Y. Lower than 3? That is N.

Completed entries (count: 8):
[[record]]
residue_sequence = "KSSGRFLWIKFFAAGELESMGFSA [NETO1]"
assigned_class = "N"

[[record]]
residue_sequence = "HSKGHKSSRQEKRPLCAQGDWHSP [ELOA2]"
assigned_class = "Y"

[[record]]
residue_sequence = "LAVLDWNQRAMDLYKALGAQDLTE [SAT2]"
assigned_class = "N"

[[record]]
residue_sequence = "PAGFRVSTLGTLQPPPAPPKKIMP [PPFIA4]"
assigned_class = "Y"

[[record]]
residue_sequence = "AAWIGGFLHSLVQFLFIYQLPFCG [OR4A15]"
assigned_class = "Y"

[[record]]
residue_sequence = "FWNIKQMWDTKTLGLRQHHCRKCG [WDFY1]"
assigned_class = "N"

[[record]]
residue_sequence = "LWSLFVPFTVYQVRWLRPVHRQLG [AUP1]"
assigned_class = "N"

[[record]]
residue_sequence = "KCEQPFFWNIKQMWDTKTLGLRQH [WDFY1]"
assigned_class = "N"


query: Assess whether reported protein stability index for FLVRLLMAMAVMLYYSNFVLALEE [MFSD9] sits at 3 or higher.
result: N

query: Assess whether reported protein stability index for IIRNVGKYREAARLEINVLKKIKE [CLK3] sits at 3 or higher.
result: N

query: Assess whether reported protein stability index for LTPGFSDNAIMLFSPDFTLRNTLK [FAN1] sits at 3 or higher.
result: N

query: Assess whether reported protein stability index for EILLHPWFESVLEPGYIDSEIGTS [TRIB1] sits at 3 or higher.
result: N

query: Assess whether reported protein stability index for TGEKPYQCNICGKCFSCNSNLHRH [ZNF263] sits at 3 or higher.
result: Y

query: Assess whether reported protein stability index for CQRSRYRDSLTQPDEEPMHYGNIM [RSPH3] sits at 3 or higher.
result: Y

query: Assess whether reported protein stability index for ESYTKMCDPGMTAFEPEALGNLVE [CAMK2A] sits at 3 or higher.
result: Y

query: Assess whether reported protein stability index for PFGENAEFPADISSITEAVPSESE [NFE2L1] sits at 3 or higher.
result: Y

query: Assess whether reported protein stability index for SVYVKLAGEREDLWAGSKGKEFGY [MIA2] sits at 3 or higher.
result: N

query: Assess whether reported protein stability index for HTETKTITYESSQVDPGTDLEPGV [EPB41L3] sits at 3 or higher.
result: Y

* * *

# measurement.protocol: protein stability index of a GFP-peptide fusion (GPS, HEK-293T) (PSI 1-6); higher = more stable
# assay.conditions: treatment: MLN4924 1 uM, 8 h; c terminus: a fixed tail appended
Can you tell me protein stability index for the items I'm about to list?
Numbers only.

Some entries whose results are on file:
[[record]]
residue_sequence = "GLQILGHTLRASMRELGLLIFFLF [KCNA4]"
assay_result = 2.96

[[record]]
residue_sequence = "AILSLDQIKAIRGSNEYTEGPSVV [SPRY1]"
assay_result = 2.98


Now consider the entry below.
query: Which value of protein stability index has been reported for SGSLEILQLLLGCKARMERDGYGM [FEM1A] in the records?
result: 3.05

* * *

# measurement.protocol: protein stability index of a GFP-peptide fusion (GPS, HEK-293T) (PSI 1-6); higher = more stable
# assay.conditions: treatment: MLN4924 1 uM, 8 h; c terminus: a fixed tail appended
Can you tell me protein stability index for the items I'm about to list?

[[record]]
residue_sequence = "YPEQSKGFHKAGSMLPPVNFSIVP [SPATS1]"
quantity_measured = "protein stability index"
assay_result = 3.06


Hi! Can you tell me protein stability index for each of these sequences?
1. IDKNRRKSCQACRLRKCYEVGMVK [ESR2]
2. YRLLKCAPRGKNGFTPLHMAVDKD [FEM1A]

result:
[3.08, 2.96]
